Data provenance: PubChem BioAssay

Hi there, I'd appreciate the recorded z-score for every entry that follows.
Target: NADPH oxidase 4 (Homo sapiens) (UniProt Q9NPH5)
Sequence (Q9NPH5 whole entry, looked up): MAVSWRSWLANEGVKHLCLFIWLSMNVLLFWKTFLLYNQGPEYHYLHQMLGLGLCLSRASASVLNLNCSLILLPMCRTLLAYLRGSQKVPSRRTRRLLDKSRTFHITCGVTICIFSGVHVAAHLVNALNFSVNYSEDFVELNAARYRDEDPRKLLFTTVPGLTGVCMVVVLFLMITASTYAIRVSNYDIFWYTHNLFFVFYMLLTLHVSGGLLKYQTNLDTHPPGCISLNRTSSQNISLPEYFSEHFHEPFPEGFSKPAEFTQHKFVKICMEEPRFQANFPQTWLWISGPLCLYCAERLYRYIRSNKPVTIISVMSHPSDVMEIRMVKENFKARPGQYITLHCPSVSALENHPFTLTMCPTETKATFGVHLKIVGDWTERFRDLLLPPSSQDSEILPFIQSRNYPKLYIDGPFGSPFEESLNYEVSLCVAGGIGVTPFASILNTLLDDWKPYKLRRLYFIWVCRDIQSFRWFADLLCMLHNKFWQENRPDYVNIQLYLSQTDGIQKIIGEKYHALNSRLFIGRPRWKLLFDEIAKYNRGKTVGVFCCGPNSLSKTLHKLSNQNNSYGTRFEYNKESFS
Experiment: compounds shifting NOX4 Amplex Red fluorescence – cell-based, HEK293-NOX4, tetracycline-induced, NOX inhibitor project, primary screen (AID 1160)
Conditions: HEK293-NOX4, Amplex Red H2O2 fluorescence, 45 min; higher = more signal, called active from +8 up or from −8 down
The answer should be a number; do not append a unit.

Can you look up the measured z-score of CCCCCN1CC=CC23O[C@@H]4C=CCCOC(=O)C4[C@H]2C(=O)N(CCCO)[C@@H]3C1=O (some centres not stated) for me?
-1.08

Can you look up the measured z-score of O=C1O[C@@H](c2ccccc2)[C@@H](c2ccccc2)N2[C@@H](c3ccccc3OCCO)[C@]3(C(=O)Nc4ccc(C#CC5(O)CCCCCC5)cc43)[C@@H](C(=O)NC[C@H](O)c3ccccc3)[C@H]12 for me?
0.973

Can you look up the measured z-score of CC(C)[C@H]1COC(=O)N1C(=O)[C@H]1[C@@H](c2ccccc2)N(c2ccccc2)O[C@@H]1C for me?
-0.138

Can you look up the measured z-score of COC(=O)[C@@]1(Cc2ccc(OC)cc2)[C@H]2c3cc(C(=O)N4CCCC4)n(CCc4ccccn4)c3C[C@H]2CN1C(=O)c1ccccc1 for me?
-2.11

Can you look up the measured z-score of C=CCC(OC(C)=O)[C@@H]1[C@@H](N(Cc2ccc(-c3cccc(C(F)(F)F)c3)o2)C(=O)c2ccc(C)cc2)c2cc(OCCCO)ccc2N1C(=O)c1ccc2ccccc2n1 (some centres not stated) for me?
0.95

Can you look up the measured z-score of C=CCNC(=O)[C@H]1[C@@H]2C(=O)O[C@@H](c3ccccc3)[C@@H](c3ccccc3)N2[C@@H](c2ccc(OCCO)cc2)[C@]12C(=O)N(C(=O)OCCOC)c1ccc(C#CC3(O)CCCCCC3)cc12 for me?
0.972

Can you look up the measured z-score of O=c1cccc(-c2ccc3ccccc3c2)o1 for me?
-4.41
